Origin of measurements: PubChem BioAssay (EPA / NIEHS)

procedure-details: Tanguay_ZF_120hpf_MORT_legacy: (Legacy) Oregon State University Tanguay Lab 120 Hour Post-fertilization zebrafish Assay for Mortality (AID 2283633)
Calls of active or inactive are those of the source. Rule for the calls: active = hit-call score of the fitted dose curve at least 0.9, where 1 is the maximum; inconclusive = response in the unintended direction; inactive = score below 0.9.
// one of active, inactive, no free text

CCCC(=O)O
inactive
CCCCCCCCCCCCCCOS(=O)(=O)O
active
CC(=O)O[C@]1(C(C)=O)CC[C@H]2[C@@H]3C=C(Cl)C4=CC(=O)[C@@H]5C[C@@H]5[C@]4(C)[C@H]3CC[C@@]21C
inactive

Input: Kindly provide the recorded test outcome for the following molecule: `CN(C)CCCN(C)CCCN(C)C`
Output: inactive

Input: // param item: `COC(=O)CCCC(=O)OC` ; yields the recorded call
Output: inactive

Input: # lookup: test call for CC(C)NCC(O)c1ccc(O)c(O)c1 (centres undefined)
Output: inactive

---

Read-out: TIMP1, TIMP1 (gene 7076)
procedure-details: LTEA_HepaRG_TIMP1: Life Technologies and Expression Analysis (LTEA) Assay for TIMP1 using HepaRG (AID 2283534)
condition-details: mRNA level, 48 h; actives raise or lower the signal
Calls of active or inactive are those of the source. Rule for the calls: active = hit-call score of the fitted dose curve at least 0.9, where 1 is the maximum; inactive = score below 0.9.
Mark one answer only. Choices: active, inactive

Here are 3 compounds together with their reported answers.
N[C@@H](Cc1c[nH]c2ccccc12)C(=O)O
inactive
C/C=C/C=C/C(=O)O
inactive
Cc1ccc(-c2cc(C(F)(F)F)nn2-c2ccc(S(N)(=O)=O)cc2)cc1
active

Input: Status in this test for `CCOCCOCCO` ?
Output: inactive

Input: Please state the recorded outcome for this compound: `COC(=O)CCC(=O)OC`
Output: inactive

---

Read-out: Apolipoprotein A-V (APOA5) gene, APOA5 (gene 116519)
procedure-details: LTEA_HepaRG_APOA5: Life Technologies and Expression Analysis (LTEA) Assay for Apolipoprotein A-V (APOA5) gene using HepaRG (AID 2283474)
condition-details: mRNA level, 48 h; actives raise or lower the signal
The source made the active and inactive calls. The calls were made as follows: active = hit-call score of the fitted dose curve at least 0.9, where 1 is the maximum; inactive = score below 0.9.
Entry note: the call must match one of active, inactive

Example entries begin here.
C/C=C/c1ccc(OC)cc1
inactive
NCCOCCOCCN
inactive
Cc1cc(SC2=C(O)C[C@@](CCc3ccc(N)cc3)(C(C)C)OC2=O)c(C(C)(C)C)cc1CO
inactive

Input: // return assay outcome for `O=C1NC(=O)C(c2ccccc2)(c2ccccc2)N1`
Output: inactive

Input: Kindly provide the recorded test outcome for the following molecule: `CCOCCOCCO`
Output: inactive

Input: Which outcome was entered for the molecule `COc1ccc(C(=O)Nc2nc3ccccc3c(NCc3ccccc3)c2C#N)cc1` in this test?
Output: inactive

Input: # lookup: test call for `c1ccc2occc2c1`
Output: inactive

Input: What did this assay record as the result for `O=NO` ?
Output: inactive

---

Read-out: UDP glucuronosyltransferase (UGT1A1), UGT1A1 (gene 54658)
procedure-details: LTEA_HepaRG_UGT1A1: Life Technologies and Expression Analysis (LTEA) Assay for UDP glucuronosyltransferase (UGT1A1) using HepaRG (AID 2283538)
condition-details: mRNA level, 48 h; actives raise or lower the signal
Protocol: LTEA_HepaRG is a cell based, multiplexed-readout assay that uses HepaRG, a human liver cell line, with measurements taken at 48 hours after chemical dosing on a 96-well plate.LTEA_HepaRG_UGT1A1 is one of 102 assay component(s) measured in the LTEA HepaRG cell culture assay. It is a marker of Steatosis/NR mediated metabolism.Data from the assay component LTEA_HepaRG_UGT1A1 was analyzed into 1 endpoint. […]
The source made the active and inactive calls. How the source made its calls: active means hit-call score of the fitted dose curve at least 0.9, where 1 is the maximum; inactive means score below 0.9.
// one of T for active, F for inactive, no free text

Here are 8 compounds together with their reported answers.
Cc1c(C)c2c(c(C)c1O)CCC(C)(COc1ccc(CC3SC(=O)NC3=O)cc1)O2 (stereo unspecified)
F
CC1=C(C)S(=O)(=O)CCS1(=O)=O
F
N[C@@H](Cc1c[nH]c2ccccc12)C(=O)O
F
NCCOCCOCCN
F
CN(C)C(=O)NC1(c2ccccc2)CCN(CC[C@@]2(c3ccc(F)c(F)c3)CN(C(=O)c3ccccc3)CCO2)CC1
F
O=C(O)CN(CC(=O)O)CC(=O)O
F
CCCCCCCCCCCCCCCCO
F
CO[C@@H]1COCC[C@@H]1N[C@@H]1CC[C@@](C(=O)N2CCc3ncc(C(F)(F)F)cc3C2)(C(C)C)C1
F

Input: For `Oc1ccc(O)cc1` , which call appears in the assay record?
Output: F

Input: Name the outcome recorded for `O=C(N[C@@H](c1ccccc1)[C@@H]1CCCCN1)c1cccc(C(F)(F)F)c1Cl` in the assay.
Output: T

Input: I'd appreciate the recorded outcome for `CC(C)OC(=O)C(C)(C)Oc1ccc(C(=O)c2ccc(Cl)cc2)cc1` from this test.
Output: T

---

procedure-details: ATG_Ets_CIS: Attagene CIS-FACTORIAL HepG2 Assay for human Erythroblast Transformation Specific (ETS) (AID 2282941)
condition-details: HepG2 ETS cis-reporter transcription, actives raise or lower the signal
Description: ATG_CIS is a cell-based, multiplexed-readout assay that uses HepG2, a human liver cell line, with measurements taken at 24 hours after chemical dosing in a 24-well plate.ATG_Ets_CIS is one of 52 assay component(s) measured or calculated from the ATG_CIS assay. […] This assay endpoint, ATG_Ets_CIS, was analyzed with bidirectional fitting relative to DMSO as the negative control and baseline of activity. […]
Calls of active or inactive are those of the source. Rule for the calls: active = hit-call score of the fitted dose curve at least 0.9, where 1 is the maximum; inactive = score below 0.9.
Choose one outcome from this list and give only that: active, inactive

Please review the entries below; each comes with its answer.
CCC(C)N(C)C(=O)c1cc2ccccc2c(-c2ccccc2Cl)n1 (centres undefined)
inactive
Cc1cc(SC2=C(O)C[C@@](CCc3ccc(N)cc3)(C(C)C)OC2=O)c(C(C)(C)C)cc1CO
inactive
O=NO
inactive
CCCCCCCCCC[N+](C)(C)[O-]
inactive
O=C1c2c(O)cccc2Cc2cccc(O)c21
inactive

Input: Given Cc1c(C)c2c(c(C)c1O)CCC(C)(COc1ccc(CC3SC(=O)NC3=O)cc1)O2 (centres undefined) , state the outcome it received in this test.
Output: inactive

Input: Field: outcome | Entry: `CCCC[C@H]1CN(CC2CCOCC2)C(=O)OC12CCN(C1(C)CCN(C(=O)c3c(C)ncnc3C)CC1)CC2`
Output: inactive

Input: What did the test return for `NCCOCCOCCN` ?
Output: inactive

Input: Hi, do you know how `CC(=O)O` came out in this test?
Output: inactive

Input: Could you kindly confirm the outcome this assay logged for `O=C(N[C@@H](c1ccccc1)[C@@H]1CCCCN1)c1cccc(C(F)(F)F)c1Cl` ?
Output: active

Input: Per the records of this test, what outcome belongs to `CC(C)(O)c1ccc(CNC(=O)c2cccnc2Oc2ccc(F)cc2)cc1` ?
Output: inactive

Input: Which result was noted for this compound in the test: `CCCCc1nc2cccnc2n1Cc1ccc(-c2ccccc2-c2nnn[nH]2)cc1`
Output: inactive

Input: What did this assay record as the result for `Nc1nc(Cl)nc2c1ncn2[C@H]1C[C@H](O)[C@@H](CO)O1` ?
Output: inactive

Input: What did the test return for `COC(=O)[C@H]1[C@H]2C[C@@H]3c4[nH]c5cc(OC)ccc5c4CCN3C[C@H]2C[C@@H](OC(=O)c2cc(OC)c(OC)c(OC)c2)[C@@H]1OC` ?
Output: inactive

Input: Check the results log: what was the call for CCCCC(CC)COC(=O)CCCCCCCC(=O)OCC(CC)CCCC (centres undefined) ?
Output: inactive

Input: Dear all, I need the recorded test outcome for `O=C(O)CN(CC(=O)O)CC(=O)O` , thank you.
Output: inactive

Input: Would you mind telling me which call this test gave `Oc1ccccc1O` ?
Output: inactive

Input: Dear all, I need the recorded test outcome for `CCc1nc(N)nc(N)c1-c1ccc(Cl)cc1` , thank you.
Output: inactive

Input: Tell me the recorded outcome of this test for `CCOCCOCCO` .
Output: inactive

Input: Would you mind telling me which call this test gave `CCCCCCC(C=O)=Cc1ccccc1` ?
Output: inactive

---

Read-out: Tissue Factor, F3 (gene 2152)
procedure-details: BSK_CASM3C_TissueFactor: BioMAP Diversity Plus: CASM3C Assay for Tissue Factor Biomarker Activity (AID 2283052);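 note: cell surface tissue factor protein level read by ELISA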
condition-details: primary human coronary artery smooth muscle cells; actives raise or lower the signal
Activity calls are given as the source filed them. The calls were made as follows: active = hit-call score of the fitted dose curve at least 0.9, where 1 is the maximum; inactive = score below 0.9.
Respond with a class label; see true for active, false for inactive

S=c1[nH]c2ccccc2s1
false
Cc1cn([C@H]2C=C[C@@H](CO)O2)c(=O)[nH]c1=O
false
Oc1ccc(O)cc1
false
CC(C)COC(=O)CCCCC(=O)OCC(C)C
false
CCCCCCCCCCCCCCCCO
false
CCOCCOCCO
false
OCC(O)CO
false
C/C=C/C=C/C(=O)O
false
O=NO
false
O=C1NC(=O)C(c2ccccc2)(c2ccccc2)N1
false

Then there is this molecule:
Input: Call for entry `CC(N)=O` :
Output: false

---

Read-out: UDP glucuronosyltransferase (UGT1A6), UGT1A6 (gene 54578)
procedure-details: LTEA_HepaRG_UGT1A6: Life Technologies and Expression Analysis (LTEA) Assay for UDP glucuronosyltransferase (UGT1A6) using HepaRG (AID 2283539)
condition-details: mRNA level, 48 h; actives raise or lower the signal
Calls of active or inactive are those of the source. How the source made its calls: active means hit-call score of the fitted dose curve at least 0.9, where 1 is the maximum; inactive means score below 0.9.
Give your call using only these classes: active, inactive

Example results:
C/C=C/C=C/C(=O)O
inactive
CCc1cc(C2=C(C(=O)O)N(c3ccccc3C(F)(F)F)S(=O)(=O)c3ccccc32)cc2c1OCO2
active
CC(=O)S[C@H](C(=O)N[C@H]1Cc2ccccc2[C@H]2CCC[C@@H](C(=O)O)N2C1=O)C(C)C
inactive
O=NO
inactive
CN(C)CCCN(C)CCCN(C)C
inactive

Lab note: next compound to report on.
Input: Test call for this compound, please: `NC1CCCCC1`
Output: inactive
